Test system: CAKI-1 renal
Experiment: NCI tumour cell line growth inhibition, 48 h
Would you mind telling me the reported TGI of each entry?

COMPOUND	TGI
CCCCC(NC(=O)CC)C(=O)O (stereo unspecified)	> 100 µM
O=C(O)c1cc(N/C=C2\C(=O)c3ccccc3OC2O)ccc1O (stereo unspecified)	42 µg/mL
Fc1ccc(-c2ncn(C3CCNCC3)c2-c2ccnc(Oc3ccccc3)n2)cc1	> 25 µM
Cc1nc2c(=O)[nH]c3ccccc3c2o1	> 100 µM
Nc1ccccc1/C=N\Nc1ccccc1	> 100 µM
O=c1c2c(sc3ccccc13)NCN(CCc1ccccc1)C2	> 100 µM

// for each compound in input: emit TGI
1. O=S(=O)(O)c1ccc(Cl)cc1.[Cd]
2. COc1cc(-c2cc(/C=C/C(=O)c3ccc4c(c3)OCO4)[nH]n2)cc(OC)c1OC
3. CC1CC(=O)N2CCCNC2=C1C#N (stereo unspecified)
4. COc1c(OC(C)=O)c(OC(C)=O)cc2c1-c1ccc(OC)c(=O)cc1C(NC(C)=O)CC2 (stereo unspecified)
5. C[C@H](CCC(=O)O[C@@H]1CC[C@@]2(C)C(CC[C@H]3[C@@H]4CC[C@H]([C@H](C)CCc5nc6ccccc6[nH]5)[C@@]4(C)CC[C@@H]32)C1)[C@H]1CC[C@H]2[C@@H]3CCC4C[C@H](O)CC[C@]4(C)[C@H]3CC[C@]12C (stereo partly specified)

Response line:
1. > 100 µM
2. > 100 µM
3. > 100 µM
4. > 100 µM
5. > 100 µM
